experimental.protocol: recombinant UMI read abundance after kanamycin selection (control-corrected) (log10(CPM+1)); higher = more efficient recombination; extreme values may be limits of the assay; sequences stand for … in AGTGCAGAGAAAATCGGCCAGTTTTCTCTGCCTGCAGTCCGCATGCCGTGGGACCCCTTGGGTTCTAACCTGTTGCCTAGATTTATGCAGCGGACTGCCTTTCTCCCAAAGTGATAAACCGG…AGGTTGGTTTCACT; site = the 11-nt donor
Decision: recombinant UMI read abundance (log10) compared against 0.4; not below it gives satisfied, below it gives not satisfied.

INSERT INTO assay_data (sequence_string, label_class) VALUES
  ('GTGAAGGCATGGACCGGTTTTCCCGGTAATCCGTATTTGTG (site GTGTAGGCTCA)', 'satisfied');

Dear colleague, could you confirm whether CGGGAGCCATGGACCGGTTTTCCCGGTAATCCGTATTTGCC (site CGGGAGGCTGG) has recombinant UMI read abundance (log10) at or above 0.4?
satisfied

Dear colleague, could you confirm whether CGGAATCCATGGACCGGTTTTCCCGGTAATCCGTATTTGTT (site CGGACTCCTAC) has recombinant UMI read abundance (log10) at or above 0.4?
not satisfied

Dear colleague, could you confirm whether CAGGGTGCATGGACCGGTTTTCCCGGTAATCCGTATTTGGT (site CAGGGTGCTAC) has recombinant UMI read abundance (log10) at or above 0.4?
satisfied

Dear colleague, could you confirm whether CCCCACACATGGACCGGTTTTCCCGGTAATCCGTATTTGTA (site CCCCGCACTTA) has recombinant UMI read abundance (log10) at or above 0.4?
not satisfied

Dear colleague, could you confirm whether TGTTAACCATGGACCGGTTTTCCCGGTAATCCGTATTTGTC (site TGTTAACCTGA) has recombinant UMI read abundance (log10) at or above 0.4?
not satisfied

---

experimental.protocol: recombinant UMI read abundance after kanamycin selection (control-corrected) (log10(CPM+1)); higher = more efficient recombination; extreme values may be limits of the assay; sequences stand for … in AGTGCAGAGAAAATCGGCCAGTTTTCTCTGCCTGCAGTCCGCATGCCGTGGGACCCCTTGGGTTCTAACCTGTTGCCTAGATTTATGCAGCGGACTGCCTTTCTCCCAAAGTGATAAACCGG…AGGTTGGTTTCACT; site = the 11-nt donor
Decision: recombinant UMI read abundance (log10) compared against 0.8; not below it gives Yes, below it gives No.

See these solved cases before continuing.
INSERT INTO results (sequence_string, label_class) VALUES
  ('GGCTATCCATGGACCGGTTTTCCCGGTAATCCGTATTTGAA (site GGCTATCCTTT)', 'No'),
  ('CAACCGCCATGGACCGGTTTTCCCGGTAATCCGTATTTGTG (site CAAGCGCCTCA)', 'No'),
  ('TAAGTCACATGGACCGGTTTTCCCGGTAATCCGTATTTGAC (site TAAGTCACTGT)', 'Yes'),
  ('CGTCTGGCATGGACCGGTTTTCCCGGTAATCCGTATTTGCT (site CGTATGGCTAG)', 'No'),
  ('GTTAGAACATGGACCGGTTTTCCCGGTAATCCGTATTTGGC (site GTTCGAACTGC)', 'No'),
  ('TGTCGTCCATGGACCGGTTTTCCCGGTAATCCGTATTTGCA (site TGTCGTCCTTG)', 'No');

Let's switch to this sequence now.
Dear colleague, could you confirm whether TTTGTTCCATGGACCGGTTTTCCCGGTAATCCGTATTTGGT (site CTTGTTCCTAC) has recombinant UMI read abundance (log10) at or above 0.8?
No

---

Parameter: recombinant barcode read abundance (log10). Scope: all listed entries.
experimental.protocol: recombinant barcode read abundance after kanamycin selection (control-corrected) (log10(CPM+1)); higher = more efficient recombination; sequences stand for … in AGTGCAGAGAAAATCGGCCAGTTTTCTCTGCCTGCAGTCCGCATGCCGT…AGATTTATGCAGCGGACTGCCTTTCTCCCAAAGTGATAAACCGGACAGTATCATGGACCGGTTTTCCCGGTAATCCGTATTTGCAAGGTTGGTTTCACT; site = the 11-nt target
Give only the figure.

// solved cases for recombinant barcode read abundance (log10) follow
INSERT INTO measurements (sequence_string, quantitative_result) VALUES
  ('TGCGCGACTTGGGTTCTAACCTGTTGCCT (site TGCGCGACTAG)', 0.032),
  ('CGGGCAGCTTGGGTTCTAACCTGTTGCCT (site CGCGCAGCTAG)', 0.0844),
  ('CAAACACCTTGGGTTCTAACCTGTTGCCT (site CAAACAGCTAG)', 0.682),
  ('CTCGAACCTTGGGTTCTAACCTGTTGCTG (site CTCGAACCTCA)', 1.93),
  ('CACTTGACTTGGGTTCTAACCTGTTGCTT (site CGCTTGTCTAA)', 0.075),
  ('GTGTCATCTTGGGTTCTAACCTGTTGCCT (site GTGTCAACTAG)', 0.142);

Quick note, recombinant barcode read abundance (log10) for ACCGCTACTTGGGTTCTAACCTGTTGCCT (site AGCGCTACTAG) landed at 0.0813

Quick note, recombinant barcode read abundance (log10) for GGTATAACTTGGGTTCTAACCTGTTGCCA (site ACACCCTCTCT) landed at 0.124

Quick note, recombinant barcode read abundance (log10) for TGTTGGCCTTGGGTTCTAACCTGTTGCCT (site TGTTGGCCTAG) landed at 0.143

Quick note, recombinant barcode read abundance (log10) for TTAGGGACTTGGGTTCTAACCTGTTGCCT (site TTAGGGGCTAG) landed at 0.517

Quick note, recombinant barcode read abundance (log10) for GAGCCGGCTTGGGTTCTAACCTGTTGCTT (site GAGGCGGCTAA) landed at 0.3

Quick note, recombinant barcode read abundance (log10) for CAAGGGCCTTGGGTTCTAACCTGTTGCCT (site CAATGGCCTAG) landed at 0.375

Quick note, recombinant barcode read abundance (log10) for CGAAAATCTTGGGTTCTAACCTGTTGCCT (site CGTAAATCTAG) landed at 0.128

---

experimental.protocol: recombinant UMI read abundance after kanamycin selection (control-corrected) (log10(CPM+1)); higher = more efficient recombination; extreme values may be limits of the assay; sequences stand for … in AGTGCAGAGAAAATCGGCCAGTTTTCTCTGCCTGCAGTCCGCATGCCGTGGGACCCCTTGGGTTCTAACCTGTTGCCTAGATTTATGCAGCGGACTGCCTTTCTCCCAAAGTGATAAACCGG…AGGTTGGTTTCACT; site = the 11-nt donor
measure: recombinant UMI read abundance (log10)
Give only the figure.

INSERT INTO results (sequence_string, quantitative_result) VALUES
  ('GTCCATGCATGGACCGGTTTTCCCGGTAATCCGTATTTGGT (site GTACATGCTAC)', 0.0101),
  ('CTGTGCCCATGGACCGGTTTTCCCGGTAATCCGTATTTGAG (site CTGTGCCCTCT)', 0.0219),
  ('CCATTCTCATGGACCGGTTTTCCCGGTAATCCGTATTTGGG (site CCCTTCTCTCC)', 0.00367),
  ('CCCCTCTCATGGACCGGTTTTCCCGGTAATCCGTATTTGGG (site CCCTTCTCTCC)', 0);

Quick note, recombinant UMI read abundance (log10) for CAAGCGCCATGGACCGGTTTTCCCGGTAATCCGTATTTGTG (site CAAGCGCCTCA) landed at 0.0111

Quick note, recombinant UMI read abundance (log10) for TCACCTTCATGGACCGGTTTTCCCGGTAATCCGTATTTGTT (site TCACCTTCTAA) landed at 0.00377

Quick note, recombinant UMI read abundance (log10) for CACTCCTCATGGACCGGTTTTCCCGGTAATCCGTATTTGGC (site CACTCCTCTGA) landed at 0.526

Quick note, recombinant UMI read abundance (log10) for GAATATTCATGGACCGGTTTTCCCGGTAATCCGTATTTGTT (site GAAAATTCTAA) landed at 0

---

experimental.protocol: recombinant UMI read abundance after kanamycin selection (control-corrected) (log10(CPM+1)); higher = more efficient recombination; extreme values may be limits of the assay; sequences stand for … in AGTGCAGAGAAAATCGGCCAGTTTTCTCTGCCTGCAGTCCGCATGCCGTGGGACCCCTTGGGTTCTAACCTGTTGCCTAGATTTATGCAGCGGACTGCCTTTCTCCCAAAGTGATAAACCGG…AGGTTGGTTTCACT; site = the 11-nt donor
Decision: recombinant UMI read abundance (log10) compared against 0.02; not below it gives satisfied, below it gives not satisfied.

See these solved cases before continuing.
INSERT INTO measurements (sequence_string, label_class) VALUES
  ('ACCTAGACATGGACCGGTTTTCCCGGTAATCCGTATTTGGC (site ACCTAGACTAC)', 'satisfied'),
  ('ACTTAGACATGGACCGGTTTTCCCGGTAATCCGTATTTGGG (site ACATAGACTCC)', 'not satisfied'),
  ('TGTACCCCATGGACCGGTTTTCCCGGTAATCCGTATTTGTA (site TGTACCCCTTA)', 'satisfied');

Dear colleague, could you confirm whether GCCACGCCATGGACCGGTTTTCCCGGTAATCCGTATTTGTG (site GCCACGCCTAA) has recombinant UMI read abundance (log10) at or above 0.02?
not satisfied
